inhibition by entry:
experiment: M. tuberculosis H37Rv growth inhibitors, H37Rv strain (AID 1626); details: active compounds read high, concentration not given here;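 further: bacteria incubated seven days before Alamar blue readout; 0% = bacteria only wells and 100% = bacteria with antibiotic wells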
In all, about 220,000 compounds went through this assay and about 2,000 (0.91%) were called active. About 2% were inconclusive and are not listed. Only a sample is shown. Results with a measured potency or affinity are listed apart.
Express the result in % but write the number alone.

Illustrative cases are given below, each with its answer.
INSERT INTO measurements (molecule, measurement_unit, endpoint_value) VALUES
  ('CCCCN(C)C(=O)C(Cc1ccccc1)NS(=O)(=O)c1ccc2c(c1)CCC(=O)N2 (stereo unspecified)', '%', -4.66),
  ('COc1ccc2nc(N=Nc3c(O)ccc4ccccc34)sc2c1', '%', 13.7),
  ('O=C(NCc1ccc2c(c1)OCO2)C1CC(=O)N(C2CCCCCCC2)C1 (stereo unspecified)', '%', 5.14),
  ('OC1CN=C2CCCc3c2n(c2ccc(Cl)cc32)C1 (stereo unspecified)', '%', -8.27),
  ('O=C(Nc1nnc(SCc2ccc(F)cc2)s1)c1ccco1', '%', -8.91);

Now look at this entry.
I have this molecule here, `CC1(C)C(=O)Nc2ccccc2N1C(=O)COc1ncnc2ccccc12` , and I need its recorded inhibition.
4.16

----------
assay: M. tuberculosis H37Rv growth inhibitors, H37Rv strain (AID 1626); details: active compounds read high, concentration not given here
Hit rate of the full screen: of about 220,000 compounds, about 2,000 (0.91%) were called active. Another 2% or so got no clear call; they are omitted. Only a sample is shown. Potency and affinity values are given separately.
Measured Endpoint: inhibition (%)
Express the result in % but write the number alone.

Illustrative cases are given below, each with its answer.
INSERT INTO measurements (compound, endpoint_value) VALUES
  ('CCS(=O)(=O)Nc1cccc(-c2ccc3nnc(C)n3n2)c1', -7.2),
  ('CSC1=NCCN1C(=O)c1c(F)cccc1Cl', 1.18);

I have this compound here, `CCn1c(=O)c(=O)[nH]c2cc(C(=O)N3CCN(c4ccccc4F)CC3)ccc21` , and I need its recorded inhibition.
7.44

Same question for `O=C(O)c1ccc(COc2ccccc2/C=C2\NC(=O)N(Cc3ccccc3F)C2=O)cc1` please.
-2.79

----------
test: M. tuberculosis H37Rv growth inhibitors, H37Rv strain (AID 1626); settings: active compounds read high, concentration not given here
The campaign covered roughly 220,000 compounds. About 2,000 (0.91%) were called active. Roughly 2% stayed inconclusive and do not appear here. The list is a sample of the results. Potency and affinity values are given separately.
Measured Endpoint: inhibition (%)
Express the result in % but write the number alone.

Illustrative cases are given below, each with its answer.
INSERT INTO measurements (molecule, endpoint_value) VALUES
  ('COc1cccc(CN(C)Cc2nc3cc(C(F)(F)F)ccc3c(=O)[nH]2)c1', 4.79),
  ('N#CC1=C2N=C(N)c3ccccc3N2C2=C(C(=O)CCC2)C1c1ccc(Cl)cc1 (configuration not stated)', -9.07);

I have this molecule here, FC(F)(F)c1ccc(CN2C[C@@H]3C(c4ccccc4)C4(c5cccnc5)CC3(C4)[C@H]2c2ccccc2)cc1 (some centres not stated) , and I need its recorded inhibition.
20.3

Same question for `Cc1ccc(SCn2nnc3ccccc3c2=O)c(C)c1` please.
-6.38

Same question for `C=CCOc1ccc(/C=C2\C(=N)N3N=C(S(=O)(=O)CC)SC3=NC2=O)cc1OC` please.
-2.08

----------
inhibition by entry:
assay: M. tuberculosis H37Rv growth inhibitors, H37Rv strain (AID 1626); settings: active compounds read high, concentration not given here
In all, about 220,000 compounds went through this assay and about 2,000 (0.91%) were called active. Inconclusive results (about 2%) are left out. These entries were drawn from the full list. Results with a measured potency or affinity are listed apart.
Express the result in % but write the number alone.

Illustrative cases are given below, each with its answer.
INSERT INTO results (query_smiles, measured_endpoint, endpoint_value) VALUES
  ('CCN1CCN(c2nc(-c3ccccn3)nc3ccccc23)CC1', 'inhibition', -2.25),
  ('c1ccc2c(N3CCCCCC3)nc(-c3ccncc3)nc2c1', 'inhibition', 37);

I have this compound here, `Cc1ccc(/C=C/C(=O)N2CCN(c3ccc(F)cc3)CC2)o1` , and I need its recorded inhibition.
-2.28

Same question for `CCC(=O)N(Cc1c(C)nn(-c2ccccc2)c1Cl)c1ccc(Cl)cc1` please.
8.67

Same question for `Fc1ccc(-n2cc(-c3ccccc3)c3c(NN4CCOCC4)ncnc32)cc1` please.
-8.02

----------
inhibition by entry:
experiment: M. tuberculosis H37Rv growth inhibitors, H37Rv strain (AID 1626); conditions: active compounds read high, concentration not given here
About 2,000 (0.91%) of roughly 220,000 compounds were called active. Inconclusive results (about 2%) are left out. The list is a sample of the results. Entries with a potency or affinity are not part of this list.
Express the result in % but write the number alone.

INSERT INTO results (compound, measured_endpoint, endpoint_value) VALUES
  ('COc1ccccc1-n1c(CNc2ccc(F)cc2)nnc1SCC(=O)Nc1cc(C)on1', 'inhibition', -4.09),
  ('CN(C)c1ccc(NC(=S)NC(=O)/C=C/c2ccc(Cl)cc2)cc1', 'inhibition', 5.85),
  ('O=C(NCC1OCCc2ccccc21)C1COc2ccccc2O1 (stereo not given)', 'inhibition', 9.06),
  ('CCc1nc2ccccc2c(C(=O)Oc2cccc3cccnc23)c1C', 'inhibition', 22.1),
  ('COc1ccc(-c2nnc(SCC(=O)Nc3cc(F)ccc3C)o2)cc1', 'inhibition', -6.49),
  ('O=S(=O)(NC1CCCc2ccccc21)c1cnc[nH]1 (stereo not given)', 'inhibition', 1.01);

I have this compound here, `Cc1ccc(NC(=O)CSc2nnnn2C)cc1S(=O)(=O)N(C)C` , and I need its recorded inhibition.
-2.13

Same question for `NC(=O)c1ccc(Oc2cccc3cccnc23)c([N+](=O)[O-])c1` please.
49.5

----------
test: M. tuberculosis H37Rv growth inhibitors, H37Rv strain (AID 1626); settings: active compounds read high, concentration not given here;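 further: bacteria incubated seven days before Alamar blue readout; 0% = bacteria only wells and 100% = bacteria with antibiotic wells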
Screen size: about 220,000 compounds; about 2,000 (0.91%) were called active. About 2% were inconclusive and are not listed. A selection follows. Results with a measured potency or affinity are listed apart.
Measured Endpoint: inhibition (%)
Express the result in % but write the number alone.

Illustrative cases are given below, each with its answer.
INSERT INTO assay_data (compound, endpoint_value) VALUES
  ('O=C(O)/C=C/c1ccc([N+](=O)[O-])o1', 7.14),
  ('CC(Sc1nnnn1-c1ccccc1)C(=O)Nc1ccc(Cl)cn1 (stereo not given)', -7.65),
  ('O=C(COC(=O)/C=C/c1ccc(F)cc1)NCc1ccco1', -4.03),
  ('O=C(c1ccccc1)N1CCN(c2ccc([N+](=O)[O-])c(NCC3CCCO3)c2)CC1 (stereo not given)', 3.59),
  ('COc1cccc(N2CCN(C(=O)c3ccc4nc(N5CCCCC5)sc4c3)CC2)c1', 5.19);

Now look at this entry.
I have this compound here, `CCOC(=O)N1CCN(C(=O)c2ccc3nc(N4CCCCC4)sc3c2)CC1` , and I need its recorded inhibition.
-6.19

----------
assay: M. tuberculosis H37Rv growth inhibitors, H37Rv strain (AID 1626); settings: active compounds read high, concentration not given here;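 further: bacteria incubated seven days before Alamar blue readout; 0% = bacteria only wells and 100% = bacteria with antibiotic wells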
The whole screen tested about 220,000 compounds, of which about 2,000 (0.91%) were called active. Roughly 2% stayed inconclusive and do not appear here. Only a sample is shown. Measured potencies and affinities stand elsewhere.
inhibition by entry:
Express the result in % but write the number alone.

Illustrative cases are given below, each with its answer.
INSERT INTO results (compound, measurement_unit, endpoint_value) VALUES
  ('Cc1cc(C)c(C)c(S(=O)(=O)N2CCN(C(=S)NCC3CCCO3)CC2)c1C (stereo unspecified)', '%', 9.9),
  ('Clc1ccc(OCCn2ccnc2)c(Br)c1', '%', 1.12),
  ('COc1cc(OC)c(NC(=O)CCc2nc(-c3ccc(C)cc3)no2)cc1Cl', '%', -0.67),
  ('O=C(O)/C=C/C(=O)NC1CC1', '%', -1.35),
  ('CSc1cccc(NC(=O)CSc2ccc(C)cc2)c1', '%', 52.9);

I have this compound here, `COc1ccc(/C=C2\SC(=S)NC2=O)cc1OS(=O)(=O)c1ccc(NC(C)=O)cc1` , and I need its recorded inhibition.
-3.97

Same question for `S=C(NCCCn1ccnc1)Nc1ccc(Cl)cc1Cl` please.
5.11

Same question for `O=C1CNC(=S)N1CCc1ccc(Cl)cc1` please.
-6.23

----------
inhibition by entry:
assay: M. tuberculosis H37Rv growth inhibitors, H37Rv strain (AID 1626); conditions: active compounds read high, concentration not given here;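 further: bacteria incubated seven days before Alamar blue readout; 0% = bacteria only wells and 100% = bacteria with antibiotic wells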
Among all 220,000 compounds or so, about 2,000 (0.91%) were called active. Inconclusive results (about 2%) are left out. These entries were drawn from the full list. Measured potencies and affinities stand elsewhere.
Express the result in % but write the number alone.

Illustrative cases are given below, each with its answer.
INSERT INTO measurements (compound, endpoint_value) VALUES
  ('COC(=O)CN(c1ccccc1)S(=O)(=O)c1ccc(F)cc1', -4.89),
  ('COc1cccc(/C=c2\s/c(=C/C(=O)c3ccc(C)cc3)[nH]c2=O)c1OC', 17.8),
  ('Cc1cc(C)cc(NC(=O)Nc2ccc3c(c2)N(C)C(=O)CS3)c1', 1.91);

Now look at this entry.
I have this compound here, `CC(=O)n1c2ccccc2c2c1c1ccccc1n2C` , and I need its recorded inhibition.
6.42
